The reported numbers originate from paper PMC9007951.

# assay.details: Timed organ biodistribution of [^64Cu]Cu-DOTATATE by ex vivo gamma counting
# Type: in vivo, mice
# run.conditions: mouse, lungs, intravenous, 1.85 MBq, total radioactivity; female C57BL/6 mice, 60 min after injection, median (IQR), N=3-7; read-out: Tissue radioactivity, lungs
readout: tissue uptake at 1 h (%ID/g)
Give the number; %ID/g is assumed, so skip it.

Q: Dear colleague, I am looking for the recorded tissue uptake at 1 h of the following compound: C[C@@H](O)[C@H](NC(=O)[C@@H]1CSSC[C@H](NC(=O)[C@@H](Cc2ccccc2)NC(=O)CN2CCN(CC(=O)O)CCN(CC(=O)O)CCN(CC(=O)O)CC2)C(=O)N[C@@H](Cc2ccc(O)cc2)C(=O)N[C@H](Cc2c[nH]c3ccccc23)C(=O)N[C@@H](CCCCN)C(=O)N[C@@H]([C@@H](C)O)C(=O)N1)C(=O)O [[^64Cu]Cu-DOTATATE, metal not drawn]
A: 1.1

---

# assay.details: Timed organ biodistribution of [^64Cu]Cu-DOTATATE by ex vivo gamma counting
# Assay type: in vivo, mice
# run.conditions: mouse, heart, intravenous, 1.85 MBq, total radioactivity; female Apoe^-/- mice 12 weeks on Western Diet, 1 min after injection, median (IQR), N=3-8; read-out: Tissue radioactivity, heart
readout: tissue uptake at 1 min (%ID/g)
Give the number; %ID/g is assumed, so skip it.

Q: Dear colleague, I am looking for the recorded tissue uptake at 1 min of the following compound: C[C@@H](O)[C@H](NC(=O)[C@@H]1CSSC[C@H](NC(=O)[C@@H](Cc2ccccc2)NC(=O)CN2CCN(CC(=O)O)CCN(CC(=O)O)CCN(CC(=O)O)CC2)C(=O)N[C@@H](Cc2ccc(O)cc2)C(=O)N[C@H](Cc2c[nH]c3ccccc23)C(=O)N[C@@H](CCCCN)C(=O)N[C@@H]([C@@H](C)O)C(=O)N1)C(=O)O [[^64Cu]Cu-DOTATATE, metal not drawn]
A: 2.3

---

# assay.details: Timed organ biodistribution of [^64Cu]Cu-DOTATATE by ex vivo gamma counting
# Format: in vivo, mice
# run.conditions: mouse, small intestine, intravenous, 1.85 MBq, total radioactivity; female Apoe^-/- mice 12 weeks on Western Diet, 5 min after injection, median (IQR), N=3-8; read-out: Tissue radioactivity, small intestine
readout: tissue uptake at 5 min

Q: Dear colleague, I am looking for the recorded tissue uptake at 5 min of the following molecule: C[C@@H](O)[C@H](NC(=O)[C@@H]1CSSC[C@H](NC(=O)[C@@H](Cc2ccccc2)NC(=O)CN2CCN(CC(=O)O)CCN(CC(=O)O)CCN(CC(=O)O)CC2)C(=O)N[C@@H](Cc2ccc(O)cc2)C(=O)N[C@H](Cc2c[nH]c3ccccc23)C(=O)N[C@@H](CCCCN)C(=O)N[C@@H]([C@@H](C)O)C(=O)N1)C(=O)O [[^64Cu]Cu-DOTATATE, metal not drawn]
A: 1.2 %ID/g

---

# assay.details: Timed organ biodistribution of [^64Cu]Cu-DOTATATE by ex vivo gamma counting
# Format: in vivo, mice
# run.conditions: mouse, liver, intravenous, 1.85 MBq, total radioactivity; female C57BL/6 mice, 30 min after injection, median (IQR), N=3-7; read-out: Tissue radioactivity, liver
readout: tissue uptake at 0.5 h (%ID/g)
Give the number; %ID/g is assumed, so skip it.

Q: Dear colleague, I am looking for the recorded tissue uptake at 0.5 h of the following molecule: C[C@@H](O)[C@H](NC(=O)[C@@H]1CSSC[C@H](NC(=O)[C@@H](Cc2ccccc2)NC(=O)CN2CCN(CC(=O)O)CCN(CC(=O)O)CCN(CC(=O)O)CC2)C(=O)N[C@@H](Cc2ccc(O)cc2)C(=O)N[C@H](Cc2c[nH]c3ccccc23)C(=O)N[C@@H](CCCCN)C(=O)N[C@@H]([C@@H](C)O)C(=O)N1)C(=O)O [[^64Cu]Cu-DOTATATE, metal not drawn]
A: 6.4
